Test system: K562
Experiment: Cytotoxicity against human K562 cells after 72 hrs by MTT assay
Format: functional, cell-based
Conditions: K562, 72 h
Endpoint Label: IC50 (µM)
// return numeric value only (unit: µM, not printed)

A selection of reference data follows.
Q) Supply recorded IC50 for O=c1[nH][nH]c2c1c1c3ccccc3[nH]c1c1[nH]c3ccccc3c12 here.
A) 8.8

Q) Return the recorded IC50 value; entry: c1ccc2c(-c3cn[nH]c3-c3c[nH]c4ccccc34)c[nH]c2c1
A) 18

Read the next record carefully.
Q) Give the reported IC50 for this molecule. c1ccc2c(c1)[nH]c1c3[nH]c4ccccc4c3c3[nH]ncc3c21
A) 4.5
